- System: 201T
- measurement_description: relative viability (nuclei count vs DMSO), 5 days (fraction); higher = more cells survive
- condition_summary: first compound 4 µM
parameter: relative viability
Give bare numbers.

Look up relative viability of Cc1sc2c(c1C)C(c1ccc(Cl)cc1)=N[C@@H](CC(=O)OC(C)(C)C)c1nnc(C)n1-2 [JQ1] + CCNC(=O)c1noc(-c2cc(C(C)C)c(O)cc2O)c1-c1ccc(CN2CCOCC2)cc1 [Luminespib] (partner 0.01 µM) and report it. 0.522

Look up relative viability of Cc1sc2c(c1C)C(c1ccc(Cl)cc1)=N[C@@H](CC(=O)OC(C)(C)C)c1nnc(C)n1-2 [JQ1] + CS(=O)(=O)N1CCN(Cc2cc3nc(-c4cccc5[nH]ncc45)nc(N4CCOCC4)c3s2)CC1 [Pictilisib] (partner 1 µM) and report it. 0.399

New cases:
Look up relative viability of Cc1sc2c(c1C)C(c1ccc(Cl)cc1)=N[C@@H](CC(=O)OC(C)(C)C)c1nnc(C)n1-2 [JQ1] + CC(=O)Nc1cccc(-n2c(=O)n(C3CC3)c(=O)c3c(Nc4ccc(I)cc4F)n(C)c(=O)c(C)c32)c1 [Trametinib] (partner 0.02 µM) and report it. 0.391

----------
I'd appreciate it if you could supply relative viability values for the items below.
- System: NCI-H1944
- measurement_description: relative viability (nuclei count vs DMSO), 5 days (fraction); higher = more cells survive
- condition_summary: first compound 0.0002 µM
One number for each entry.

Some compounds with recorded relative viability:
Look up relative viability of CC(=O)O[C@@]12CO[C@@H]1C[C@H](O)[C@@]1(C)C(=O)[C@H](O)C3=C(C)[C@@H](OC(=O)[C@H](O)[C@@H](NC(=O)OC(C)(C)C)c4ccccc4)C[C@@](O)([C@@H](OC(=O)c4ccccc4)[C@H]21)C3(C)C [Docetaxel] + Cc1nc(NC(=O)N2CCC[C@H]2C(N)=O)sc1-c1ccnc(C(C)(C)C(F)(F)F)c1 [Alpelisib] (partner 2 µM) and report it. 0.751

Look up relative viability of CC(=O)O[C@@]12CO[C@@H]1C[C@H](O)[C@@]1(C)C(=O)[C@H](O)C3=C(C)[C@@H](OC(=O)[C@H](O)[C@@H](NC(=O)OC(C)(C)C)c4ccccc4)C[C@@](O)([C@@H](OC(=O)c4ccccc4)[C@H]21)C3(C)C [Docetaxel] + Cc1nc(Nc2ncc(C(=O)Nc3c(C)cccc3Cl)s2)cc(N2CCN(CCO)CC2)n1 [Dasatinib] (partner 0.075 µM) and report it. 0.216

Please turn your attention to the following entry.
Look up relative viability of CC(=O)O[C@@]12CO[C@@H]1C[C@H](O)[C@@]1(C)C(=O)[C@H](O)C3=C(C)[C@@H](OC(=O)[C@H](O)[C@@H](NC(=O)OC(C)(C)C)c4ccccc4)C[C@@](O)([C@@H](OC(=O)c4ccccc4)[C@H]21)C3(C)C [Docetaxel] + CS(=O)(=O)CCNCc1ccc(-c2ccc3ncnc(Nc4ccc(OCc5cccc(F)c5)c(Cl)c4)c3c2)o1 [Lapatinib] (partner 2 µM) and report it. 0.545

----------
- Tested on: HCC-15
- measurement_description: relative viability (nuclei count vs DMSO), 5 days (fraction); higher = more cells survive
- condition_summary: first compound 0.01581 µM
Mark t only when relative viability stays strictly below 0.5. Values equal to the cut-off are f.

These recorded examples may help you get a feel for the data.
Bench note: check whether COc1cc2nccc(Oc3ccc(NC(=O)Nc4cc(C)on4)c(Cl)c3)c2cc1OC [Tivozanib] + CCNC(=O)c1noc(-c2cc(C(C)C)c(O)cc2O)c1-c1ccc(CN2CCOCC2)cc1 [Luminespib] (partner 0.01 µM) shows relative viability below 0.5 t

Bench note: check whether COc1cc2nccc(Oc3ccc(NC(=O)Nc4cc(C)on4)c(Cl)c3)c2cc1OC [Tivozanib] + Cc1cc(Nc2cc(N3CCN(C)CC3)nc(Sc3ccc(NC(=O)C4CC4)cc3)n2)n[nH]1 [Tozasertib] (partner 0.1 µM) shows relative viability below 0.5 t

Bench note: check whether Nc1ccn([C@@H]2O[C@H](CO)[C@@H](O)[C@@H]2O)c(=O)n1 [Cytarabine] + Cc1cc(Nc2cc(N3CCN(C)CC3)nc(Sc3ccc(NC(=O)C4CC4)cc3)n2)n[nH]1 [Tozasertib] (partner 0.1 µM) shows relative viability below 0.5 f

New cases:
Bench note: check whether Nc1ccn([C@@H]2O[C@H](CO)[C@@H](O)[C@@H]2O)c(=O)n1 [Cytarabine] + Nc1ncn([C@H]2C[C@H](O)[C@@H](CO)O2)c(=O)n1 [Decitabine] (partner 2 µM) shows relative viability below 0.5 f

Bench note: check whether COc1cc2nccc(Oc3ccc(NC(=O)Nc4cc(C)on4)c(Cl)c3)c2cc1OC [Tivozanib] + C[C@@H](Oc1cc(-c2cnn(C3CCNCC3)c2)cnc1N)c1c(Cl)ccc(F)c1Cl [Crizotinib] (partner 1 µM) shows relative viability below 0.5 f

----------
- System: LOU-NH91
- measurement_description: relative viability (nuclei count vs DMSO), 5 days (fraction); higher = more cells survive
- condition_summary: first compound 0.8 µM
parameter: relative viability
Answers are plain numbers.

Some compounds with recorded relative viability:
// fetch relative viability for O=c1[nH]c2ccccc2n1C1CCN(CCCC(c2ccc(F)cc2)c2ccc(F)cc2)CC1 [Pimozide] + CS(=O)(=O)N1CCN(Cc2cc3nc(-c4cccc5[nH]ncc45)nc(N4CCOCC4)c3s2)CC1 [Pictilisib] (partner 1 µM) ; system: LOU-NH91 0.521

// fetch relative viability for O=c1[nH]c2ccccc2n1C1CCN(CCCC(c2ccc(F)cc2)c2ccc(F)cc2)CC1 [Pimozide] + O=C(c1cc(Cc2n[nH]c(=O)c3ccccc23)ccc1F)N1CCN(C(=O)C2CC2)CC1 [Olaparib] (partner 8 µM) ; system: LOU-NH91 0.866

// fetch relative viability for O=c1[nH]c2ccccc2n1C1CCN(CCCC(c2ccc(F)cc2)c2ccc(F)cc2)CC1 [Pimozide] + N=C(N)NC(=N)NCCc1ccccc1 [Phenformin] (partner 250 µM) ; system: LOU-NH91 0.677

// fetch relative viability for Cc1cnc(-c2cnc(NCCNc3ccc(C#N)cn3)nc2-c2ccc(Cl)cc2Cl)[nH]1 + Nc1nc2[nH]cc(CCc3ccc(C(=O)N[C@@H](CCC(=O)O)C(=O)O)cc3)c2c(=O)[nH]1 [Pemetrexed] (partner 0.2 µM) ; system: LOU-NH91 0.399

// fetch relative viability for Cc1cnc(-c2cnc(NCCNc3ccc(C#N)cn3)nc2-c2ccc(Cl)cc2Cl)[nH]1 + COc1cc2c(Oc3ccc(NC(=O)C4(C(=O)Nc5ccc(F)cc5)CC4)cc3F)ccnc2cc1OCCCN1CCOCC1 [Foretinib] (partner 0.25 µM) ; system: LOU-NH91 0.96

// fetch relative viability for Cc1cnc(-c2cnc(NCCNc3ccc(C#N)cn3)nc2-c2ccc(Cl)cc2Cl)[nH]1 + O=C(c1cc(Cc2n[nH]c(=O)c3ccccc23)ccc1F)N1CCN(C(=O)C2CC2)CC1 [Olaparib] (partner 8 µM) ; system: LOU-NH91 0.962

// fetch relative viability for Cc1cnc(-c2cnc(NCCNc3ccc(C#N)cn3)nc2-c2ccc(Cl)cc2Cl)[nH]1 + COc1cccc2cc(-c3nc([C@H]4CC[C@H](C(=O)O)CC4)n4ncnc(N)c34)[nH]c12 [OSI-027] (partner 0.5 µM) ; system: LOU-NH91 0.751

// fetch relative viability for Cc1cnc(-c2cnc(NCCNc3ccc(C#N)cn3)nc2-c2ccc(Cl)cc2Cl)[nH]1 + Cc1nc(Nc2ncc(C(=O)Nc3c(C)cccc3Cl)s2)cc(N2CCN(CCO)CC2)n1 [Dasatinib] (partner 0.075 µM) ; system: LOU-NH91 0.55

Please turn your attention to the following entry.
// fetch relative viability for O=c1[nH]c2ccccc2n1C1CCN(CCCC(c2ccc(F)cc2)c2ccc(F)cc2)CC1 [Pimozide] + C[C@]1(O)C[C@@H](c2nc(-c3ccc4ccc(-c5ccccc5)nc4c3)c3c(N)nccn32)C1 [Linsitinib] (partner 1 µM) ; system: LOU-NH91 0.929

----------
- Test system: NCI-H322M
- measurement_description: relative viability (nuclei count vs DMSO), 5 days (fraction); higher = more cells survive
- condition_summary: first compound 0.4 µM
I'd appreciate it if you could supply relative viability values for the items below.

Some molecules with recorded relative viability:
Look up relative viability of Cc1sc2c(c1C)C(c1ccc(Cl)cc1)=N[C@@H](CC(=O)OC(C)(C)C)c1nnc(C)n1-2 [JQ1] + CC(C)C[C@H](NC(=O)[C@H](Cc1ccccc1)NC(=O)c1cnccn1)B(O)O [Bortezomib] (partner 0.002 µM) and report it. 1.35

Look up relative viability of Cc1sc2c(c1C)C(c1ccc(Cl)cc1)=N[C@@H](CC(=O)OC(C)(C)C)c1nnc(C)n1-2 [JQ1] + COc1cccc2cc(-c3nc([C@H]4CC[C@H](C(=O)O)CC4)n4ncnc(N)c34)[nH]c12 [OSI-027] (partner 0.5 µM) and report it. 0.477

Look up relative viability of Cc1sc2c(c1C)C(c1ccc(Cl)cc1)=N[C@@H](CC(=O)OC(C)(C)C)c1nnc(C)n1-2 [JQ1] + Nc1nc2[nH]cc(CCc3ccc(C(=O)N[C@@H](CCC(=O)O)C(=O)O)cc3)c2c(=O)[nH]1 [Pemetrexed] (partner 0.2 µM) and report it. 0.515

Look up relative viability of Cc1sc2c(c1C)C(c1ccc(Cl)cc1)=N[C@@H](CC(=O)OC(C)(C)C)c1nnc(C)n1-2 [JQ1] + Nc1ncn([C@H]2C[C@H](O)[C@@H](CO)O2)c(=O)n1 [Decitabine] (partner 2 µM) and report it. 0.641

// for each molecule below, give its relative viability
1. Cc1sc2c(c1C)C(c1ccc(Cl)cc1)=N[C@@H](CC(=O)OC(C)(C)C)c1nnc(C)n1-2 [JQ1] + O=C(CCCCCCC(=O)Nc1ccccc1)NO [Vorinostat] (partner 1 µM)
2. Cc1sc2c(c1C)C(c1ccc(Cl)cc1)=N[C@@H](CC(=O)OC(C)(C)C)c1nnc(C)n1-2 [JQ1] + CCNC(=O)c1noc(-c2cc(C(C)C)c(O)cc2O)c1-c1ccc(CN2CCOCC2)cc1 [Luminespib] (partner 0.01 µM)
3. Cc1sc2c(c1C)C(c1ccc(Cl)cc1)=N[C@@H](CC(=O)OC(C)(C)C)c1nnc(C)n1-2 [JQ1] + CC(=O)c1c(C)c2cnc(Nc3ccc(N4CCNCC4)cn3)nc2n(C2CCCC2)c1=O [Palbociclib] (partner 0.5 µM)
4. Cc1sc2c(c1C)C(c1ccc(Cl)cc1)=N[C@@H](CC(=O)OC(C)(C)C)c1nnc(C)n1-2 [JQ1] + C[C@@H](Oc1cc(-c2cnn(C3CCNCC3)c2)cnc1N)c1c(Cl)ccc(F)c1Cl [Crizotinib] (partner 1 µM)

1: 0.687; 2: 0.599; 3: 0.428; 4: 0.856
